meta.source: patent US10407398B2

- target-under-test: LecBPA14 (Pseudomonas aeruginosa, UniProt A0A0H2ZE85)
- Sequence (A0A0H2ZE85 entry or part of it): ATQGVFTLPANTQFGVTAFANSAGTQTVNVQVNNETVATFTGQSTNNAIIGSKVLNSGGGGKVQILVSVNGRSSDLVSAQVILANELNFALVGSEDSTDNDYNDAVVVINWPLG
- method-description: biochemical
- Assay type: binding, Pseudomonas aeruginosa UCBPP-PA14
- conditions-used: ITC, 25° C., LecBPA14

{"molecule": "CC[C@@]1(O)C(C)OCC(O)C1O (stereo partly shown) [drawing 116]", "ΔH, kcal/mol": -10}
{"molecule": "Cc1cc(C)c(S(=O)(=O)NC[C@H]2OC(C)[C@@H](O)C(O)C2O)c(C)c1 (stereo partly shown) [drawing 119]", "ΔH, kcal/mol": -9.03}
{"molecule": "CC1OCC(O)C(O)[C@@H]1O (stereo partly drawn) [drawing 115, 1-deoxy-L-fucose, reference compound]", "ΔH, kcal/mol": -7.58}
{"molecule": "CC1O[C@H](CNC(=O)/C=C/c2ccccc2)C(O)C(O)[C@@H]1O (stereo partly shown) [drawing 118]", "ΔH, kcal/mol": -7.5}
{"molecule": "CC1O[C@H](CNS(=O)(=O)c2cccs2)C(O)C(O)[C@@H]1O (stereo partly shown)", "ΔH, kcal/mol": -12}
{"molecule": "CCCC[C@@]1(O)C(C)OCC(O)C1O (stereo partly shown) [drawing 117]", "ΔH, kcal/mol": -9.42}
{"molecule": "Cc1cc(S(=O)(=O)NC[C@H]2OC(C)[C@@H](O)C(O)C2O)c(C)s1 (stereo partly shown)", "ΔH, kcal/mol": -9.66}

====

- target-under-test: LecBPAO1 (Pseudomonas aeruginosa, UniProt Q9HYN5)
- Sequence (Q9HYN5 entry or part of it): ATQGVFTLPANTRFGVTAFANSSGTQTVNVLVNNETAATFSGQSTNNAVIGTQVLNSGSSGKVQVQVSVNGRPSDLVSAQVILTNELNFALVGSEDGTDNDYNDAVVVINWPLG
- method-description: Microcalorimetric assay (ITC) for direct binding
Just a reminder that ties go to False: only Kd strictly below 800 nM counts as True.

{"molecule": "CC1OCC(O)C(O)[C@@H]1O (stereo partly drawn) [drawing 115, 1-deoxy-L-fucose, reference compound]", "label-value": "True"}
{"molecule": "CC1O[C@H](CNC(=O)/C=C/c2ccccc2)C(O)C(O)[C@@H]1O (some centres unmarked) [drawing 118]", "label-value": "False"}
{"molecule": "CC[C@@]1(O)C(C)OCC(O)C1O (some centres unmarked) [drawing 116]", "label-value": "True"}
{"molecule": "Cc1cc(C)c(S(=O)(=O)NC[C@H]2OC(C)[C@@H](O)C(O)C2O)c(C)c1 (some centres unmarked) [drawing 119]", "label-value": "False"}
{"molecule": "CCCC[C@@]1(O)C(C)OCC(O)C1O (some centres unmarked) [drawing 117]", "label-value": "True"}

====

- target-under-test: LecBPA14 (Pseudomonas aeruginosa, UniProt A0A0H2ZE85)
- method-description: biochemical
A collection of molecules and their measured IC50

{"molecule": "CCCCCC[C@@]1(O)C(C)OCC(O)C1O (stereo partly drawn) [1-deoxy-4(S)—C-(hexyl) L-fucose]", "qualifier-operator": "=", "IC50, nM": 330}
{"molecule": "CCC1(O)C(O)COC(C)[C@H]1O (stereo partly drawn) [1-deoxy-3(S)—C-(ethyl)-L-fucose]", "qualifier-operator": "=", "IC50, nM": 41500}
{"molecule": "CCC[C@@]1(O)C(C)OCC(O)C1O (stereo partly drawn) [1-deoxy-4(S)—C-(propyl) L-fucose]", "qualifier-operator": "=", "IC50, nM": 230}
{"molecule": "CC1O[C@H](CNC(=O)c2cc3ccccc3o2)C(O)C(O)[C@@H]1O (some centres unmarked)", "qualifier-operator": "=", "IC50, nM": 2560}
{"molecule": "CC1OCC(O)C(O)(CN)[C@@H]1O (stereo partly drawn) [1-deoxy-3(S)—C-(aminomethyl)-L-fucose]", "qualifier-operator": ">", "IC50, nM": 300000}
